biological target: T1, recombinant human domain 1-3His6 of the cation-independent mannose-6-phosphate receptor (human, UniProt P11717 41-467); assay: BLI exp 1, dissoc pH 6
T1 construct: Biotinylated (NHS-PEG4-biotin) for BLI; Glycosylated; also called hDom1-3His6; hCI-M6PRD1-D3
EXPERIMENTAL READOUT: Kd (nM)

Examples with answers:
Hello, please tell me recorded Kd for this one: anti-CI-M6PR VHH8 (VHH, His6-tagged (Pichia pastoris)) VHH: QVQLQESGGGLVQAGGSLRLSCEASGRTFNTYNWGWFRQAPGKEREFVAAIRWSSSKTSYADSVKGRFTISRDNAKNTIYLQMNSLKPEDTAVYYCAASIVDFTTNPSHFGSWGQGTQVTVSS
12.7

Indicate its recorded Kd; the binder in question is anti-CI-M6PR VHH1 (VHH, His6-tagged; made in Pichia pastoris, later also in E. coli WK6) VHH: QVQLQESGGGLVQPGGSLRLSCVASGFTFDRYWMNWLRQIPGKEIEWVSTINTGGTGTYYDDSVKGRFSISRDDAKNTLYLTMNSLKTEDTAVYYCARGATYYRGNSAIRGQGTQVTVSS
12.7

a = anti-CI-M6PR VHH2 (VHH, His6-tagged; made in Pichia pastoris) VHH: QVQLQESGGGLVQPGGSLRLSCVFSGRTFMSYDVGWFRQAPGKERELLSSITSSSSSPYYAESVKGRFAVSRDGAKKTVYLRMNSLEPEDTAVYYCAARENWRNDWQYWGQTQVTVSS
b = anti-CI-M6PR VHH6 (VHH, His6-tagged; made in E. coli) VHH: QVQLQESGGGLVQAGGSLRLSCAVSGSISSIGGMGWFRQAPGKQREFVAVILNNSGMTSYADSVKGRFTISRGNSKNTMYLQMNSLKPEDTAVYYCNYSGYWGQGTQVTVSS
Given a and b , report the one with the higher recorded Kd. Field: selected label. Fill in the label of the entry you choose.
a
(a: 5.96 nM, b: 1.56 nM)
